# maps each entry to its Ki
Molecular target: fMet-Leu-Phe receptor (Homo sapiens)
Sequence (P21462 whole entry): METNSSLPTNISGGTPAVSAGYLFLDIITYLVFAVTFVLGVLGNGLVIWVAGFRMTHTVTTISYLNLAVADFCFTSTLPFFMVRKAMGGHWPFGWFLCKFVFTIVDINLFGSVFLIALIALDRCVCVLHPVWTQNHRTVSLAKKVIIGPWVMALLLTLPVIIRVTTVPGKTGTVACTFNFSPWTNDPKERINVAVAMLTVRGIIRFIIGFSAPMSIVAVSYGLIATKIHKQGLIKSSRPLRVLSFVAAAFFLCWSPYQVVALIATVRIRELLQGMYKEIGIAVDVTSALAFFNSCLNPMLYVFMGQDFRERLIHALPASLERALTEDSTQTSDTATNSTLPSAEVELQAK
Assay: FPR ligands, dose response (AID 519)
Format: functional
Calls of active or inactive are those of the source.

COc1ccc(-c2cn3cccnc3n2)cc1NC(=O)C1CC1: > 66.7 µM (inactive)

Q: Sample `CC(=O)SCC(=O)/N=c1\sc2cc(F)ccc2n1C` — what was its Ki?
Result: 22.8 µM (inactive)

---

Test: Luminescence Cell-Based Dose Response HTS to Identify Inhibitors of 5'UTR Stem-Loop Driven Prion Protein mRNA Translation in H4 Neuroglioblastoma Cells. [Related pubchem assays: 1827 (Project Summary), 1813 (Primary HTS)]
Type: functional
Activity calls are given as the source filed them.
measurement_label: EC50

NC(=O)c1sc2nc3c(c(-c4ccc(Cl)cc4)c2c1N)CCCC3: > 120 µM (not active)
COc1cc(C(=O)N2CCN(c3cc(Cl)ccc3Cl)CC2)cc(OC)c1OC: 0.164 µM (active)
Cn1c(-c2ccccc2)cnc1SCC(=O)N1CCCCC1: 5.72 µM (active)

Please turn your attention to the following entry.
Q: Sample `O=C(CC12CC3CC(CC(C3)C1)C2)NC(=S)NCc1ccccc1` — what was its EC50?
Result: 18.4 µM (active)

---

Test: inhibitors of HIV Env-driven cell fusion, dose response, cherry-pick (AID 652057)
Type: functional, cell-based
Calls of active or inactive are those of the source.
# maps each entry to its AC50

CCc1ccc(OCC(=O)NCC(c2ccc(Cl)cc2)N2CCCCC2)cc1 (centres undefined): 3950 nM (active)
CCCCOCCCNc1[nH]cnc2c3ccccc3nc1-2: 33800 nM (active)
COC(=O)[C@@]1(C)[C@H]2C(=O)N(Cc3ccccc3)C(=O)[C@H]2[C@H]2CN=C(SCc3ccc(Cl)cc3)N21: 876 nM (active)

Q: Sample `CCCCn1c(N)c(N(CC(C)C)C(=O)c2ccc(S(=O)(=O)N(CC)c3ccccc3)cc2)c(=O)[nH]c1=O` — what was its AC50?
Result: 402 nM (active)

---

# maps each entry to its IC50
Target: Sentrin-specific protease 7 (Homo sapiens);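 further: Luminescence-based dose-response confirmation of ultra-high-throughput screening hits, measuring inhibition of SENP7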
Sequence (Q9BQF6 whole entry): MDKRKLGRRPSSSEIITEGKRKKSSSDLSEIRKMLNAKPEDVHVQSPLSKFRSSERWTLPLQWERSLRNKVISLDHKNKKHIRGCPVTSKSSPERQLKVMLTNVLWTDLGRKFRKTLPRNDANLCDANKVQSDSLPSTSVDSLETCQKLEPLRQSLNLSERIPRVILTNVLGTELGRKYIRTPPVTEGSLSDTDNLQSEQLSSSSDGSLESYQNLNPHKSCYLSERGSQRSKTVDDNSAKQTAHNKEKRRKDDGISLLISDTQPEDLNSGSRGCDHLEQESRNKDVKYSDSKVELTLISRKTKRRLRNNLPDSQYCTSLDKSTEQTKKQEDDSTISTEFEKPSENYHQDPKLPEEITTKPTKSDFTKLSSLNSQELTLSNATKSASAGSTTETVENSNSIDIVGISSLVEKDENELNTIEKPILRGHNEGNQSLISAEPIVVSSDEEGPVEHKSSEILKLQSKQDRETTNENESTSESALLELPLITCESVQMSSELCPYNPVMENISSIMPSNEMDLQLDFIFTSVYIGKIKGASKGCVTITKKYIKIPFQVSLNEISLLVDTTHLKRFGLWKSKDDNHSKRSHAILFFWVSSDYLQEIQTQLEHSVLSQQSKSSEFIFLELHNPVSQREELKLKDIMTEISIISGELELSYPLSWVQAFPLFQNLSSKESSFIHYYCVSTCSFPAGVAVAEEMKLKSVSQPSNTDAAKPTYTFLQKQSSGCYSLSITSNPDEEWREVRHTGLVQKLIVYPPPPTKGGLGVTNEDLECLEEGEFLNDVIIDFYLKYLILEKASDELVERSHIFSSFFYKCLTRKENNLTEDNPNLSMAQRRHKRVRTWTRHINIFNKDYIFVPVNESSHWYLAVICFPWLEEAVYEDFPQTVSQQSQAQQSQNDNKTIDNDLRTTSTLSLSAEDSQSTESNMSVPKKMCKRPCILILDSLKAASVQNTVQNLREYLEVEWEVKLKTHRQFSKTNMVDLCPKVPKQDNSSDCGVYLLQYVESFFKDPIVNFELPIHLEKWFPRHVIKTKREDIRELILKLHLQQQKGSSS
Type: functional
Active and inactive are the calls of the source.

Answered examples (2):
COc1ccc(C(=O)Nc2nc3c(s2)Cc2cc(OC)ccc2-3)cc1: 2.36 µM (active)
CC(=O)c1c(C)oc2ccc(OCc3ccccc3)cc12: 11.4 µM (active)

Please turn your attention to the following entry.
Q: Quick check: IC50 on Sentrin-specific protease 7 (Homo sapiens), item `Cn1c(-c2ccccc2)cc2onc(-c3ccccc3)c2c1=O` ?
Result: 1.14 µM (active)

---

Test: C. albicans growth with fluconazole, confirmation, fluorescence, retest (AID 2467)
Assay type: functional, cell-based
Calls of active or inactive are those of the source.
measurement_label: EC50

Answered examples (3):
O=C(CCl)N1c2ccccc2CCc2ccccc21: 2.36 µM (active)
CCCCCCCSc1nc(N)cc(O)n1: 4.49 µM (active)
CC(C)C(=O)NC(c1ccco1)c1ccc2cccnc2c1O (stereo unspecified): 1.6 µM (active)

Q: Sample `O=C(Nc1nnc(CCc2ccccc2)s1)c1ccco1` — what was its EC50?
Result: 1.08 µM (active)

Q: Please give the result for `FC(F)(F)COc1nc(OCC(F)(F)F)nc(N2CCN(c3ccccc3)CC2)n1` too.
Result: > 38 µM (not active)

Q: Please give the result for `O=C(c1ccc(Cn2c(=S)[nH]c3ccccc3c2=O)cc1)N1CCN(c2ccccn2)CC1` too.
Result: 0.549 µM (active)

---

Assay: inhibitors of SNCA 5'UTR-driven reporter translation, confirmation, H4 neuroglioma cells, luminescence (AID 1988)
Assay type: functional, cell-based
Calls of active or inactive are those of the source.
# maps each entry to its EC50

Answered examples (3):
CC(C)COc1ccc2[nH]c3c(c2c1)CCCC3=O: 10.6 µM (active)
O=C(Cn1cnc2c(cnn2-c2ccc(Cl)cc2)c1=O)N1CCN(c2ccccc2)CC1: 18.4 µM (active)
COC(=O)C1CCN(C(=O)COC(=O)Cc2c[nH]c3ccccc23)CC1: > 120 µM (not active)

Q: Sample `N=C(N)c1ccc(OCCCCCOc2ccc(C(=N)N)cc2)cc1` — what was its EC50?
Result: 9.9 µM (active)

Q: Please give the result for `CCCNC(=O)c1ccc2c(O)c(O)c(-c3cccc(Br)c3)nc2c1` too.
Result: 3.4 µM (active)

Q: Please give the result for `O=[N+]([O-])c1ccc(OCc2cn([C@@H](CO)c3ccccc3)nn2)c(Br)c1` too.
Result: > 120 µM (not active)

Q: Please give the result for CC(=O)O[C@H]1C(=O)[C@@]2(C)C([C@H](OC(=O)c3ccccc3)[C@]3(O)C[C@H](OC(=O)[C@H](O)[C@@H](NC(=O)c4ccccc4)c4ccccc4)C(C)=C1C3(C)C)[C@]1(OC(C)=O)CO[C@@H]1C[C@H]2O (stereo partly drawn) too.
Result: < 0.1 µM (active)

---

Target: UniProt Q15056
Assay: eIF4H inhibition in translation initiation, SAR follow-up (AID 435011)
Format: functional
Calls of active or inactive are those of the source.
The categories you may choose from are active, inactive

CC(C)(C)c1ccc(C(=O)Nc2cccc3ncccc23)cc1: active
O=C(COc1ccc(C=NNC(=O)c2ccccc2O)cc1)Nc1ccccc1: inactive
COc1ccccc1N=C1SC(C(=O)Nc2ccccc2)CC(=O)N1C (centres undefined): inactive

Q: Returns: the outcome recorded for CCn1c(=O)n(CC)c2cc(NC(=O)C(C)c3ccccc3)c(Br)cc21 (centres undefined) in this assay.
Result: inactive

---

Target: Mannose-6-phosphate isomerase (Homo sapiens, UniProt P34949)
Sequence (P34949 whole entry): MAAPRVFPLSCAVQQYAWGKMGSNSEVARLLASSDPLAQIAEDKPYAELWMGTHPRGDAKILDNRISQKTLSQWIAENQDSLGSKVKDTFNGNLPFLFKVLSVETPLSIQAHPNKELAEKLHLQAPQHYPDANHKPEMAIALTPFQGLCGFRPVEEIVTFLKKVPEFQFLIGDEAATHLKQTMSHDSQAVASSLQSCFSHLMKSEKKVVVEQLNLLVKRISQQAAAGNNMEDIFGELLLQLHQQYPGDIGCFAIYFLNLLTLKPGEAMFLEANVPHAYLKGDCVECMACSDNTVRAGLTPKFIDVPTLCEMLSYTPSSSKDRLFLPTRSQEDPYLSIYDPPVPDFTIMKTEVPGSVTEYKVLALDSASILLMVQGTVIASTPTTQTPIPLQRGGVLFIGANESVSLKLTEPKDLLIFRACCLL
Assay: human PMI inhibitors, high substrate, primary screen, biochemical, fluorescence intensity, high mannose 6-phosphate (AID 1220)
Active and inactive are the calls of the source.
# maps each entry to its IC50

CC(C)(C)C1=CC(=O)C(=O)C(C(C)(C)C)=C1: 9.84 µM (active)
CCn1c(=O)n(CC)c2cc(N)ccc21: > 50 µM (not active)
Cc1oc2c(c1C(=O)c1ccccc1)C(=O)C(=O)c1ccccc1-2: > 50 µM (not active)
COCc1n[nH]c2c1C(c1cc(OC)c(O)c(OC)c1)C(C#N)=C(N)O2 (stereo not given): > 50 µM (not active)
C[C@@H]1O[C@@H](Oc2c(-c3cc(O)c(O)c(O)c3)oc3cc(O)cc(O)c3c2=O)[C@H](O)[C@H](O)[C@H]1O: 31 µM (active)

Q: Sample `CCc1cc(N2CCOCC2)cc2c1[nH]c1ccccc12` — what was its IC50?
Result: > 50 µM (not active)

Q: Please give the result for `CCCCN1C(=O)/C(=N\c2cccc3cnccc23)c2ccccc21` too.
Result: > 50 µM (not active)

Q: Please give the result for `Cn1cc2ccc(N)cc2n1` too.
Result: > 50 µM (not active)

Q: Please give the result for CC1CCCN(CCC(=O)c2ccc(Br)cc2)C1 (stereo not given) too.
Result: > 50 µM (not active)

Q: Please give the result for `Cc1cccc(N2CCc3c2nc2ccc(Br)cc2c3N)c1` too.
Result: > 50 µM (not active)

---

Biological target: 5-hydroxytryptamine receptor 2A (Mus musculus, UniProt P35363);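 further: CHO-K1 cells with tagged receptor and beta-arrestin; agonist potency measured as compound-induced activation of the receptor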
Sequence (P35363 whole entry): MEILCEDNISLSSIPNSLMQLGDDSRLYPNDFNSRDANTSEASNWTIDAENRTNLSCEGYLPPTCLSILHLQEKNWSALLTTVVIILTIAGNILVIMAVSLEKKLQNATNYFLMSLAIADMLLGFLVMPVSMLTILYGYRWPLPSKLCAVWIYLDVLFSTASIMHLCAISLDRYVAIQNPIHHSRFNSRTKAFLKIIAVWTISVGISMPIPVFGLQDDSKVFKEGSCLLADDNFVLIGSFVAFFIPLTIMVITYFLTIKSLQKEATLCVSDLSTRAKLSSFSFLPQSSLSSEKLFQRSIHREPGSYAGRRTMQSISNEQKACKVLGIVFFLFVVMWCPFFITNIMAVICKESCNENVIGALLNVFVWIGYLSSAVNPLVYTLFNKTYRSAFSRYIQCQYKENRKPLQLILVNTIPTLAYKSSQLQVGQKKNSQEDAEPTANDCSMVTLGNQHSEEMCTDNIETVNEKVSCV
Format: functional, cell-based
Active and inactive are the calls of the source.
The categories you may choose from are active, inactive

CCOC(=O)N1CCN(Cc2ccc(OCC(O)CN3CCCCC3)cc2)CC1 (stereo not given): active
COc1ccc(C)cc1NC(=O)c1ccc(CN2CCN(c3ccccc3)CC2)cc1: inactive

Q: Returns: the outcome recorded for `c1cnc(N2CCN(Cc3ccc4c(c3)OCO4)CC2)nc1` in this assay.
Result: active

Q: Please give the result for CC(=O)NCC1(c2ccccc2)CCN(CC2COc3ccccc3O2)CC1 (stereo not given) too.
Result: inactive

Q: Please give the result for `CSCCC(=O)N1CC[C@@H](N2CCN(c3ccccc3F)CC2)[C@H](O)C1` too.
Result: inactive

---

Biological target: Luciferin 4-monooxygenase (Photinus pyralis)
Sequence (P08659 whole entry): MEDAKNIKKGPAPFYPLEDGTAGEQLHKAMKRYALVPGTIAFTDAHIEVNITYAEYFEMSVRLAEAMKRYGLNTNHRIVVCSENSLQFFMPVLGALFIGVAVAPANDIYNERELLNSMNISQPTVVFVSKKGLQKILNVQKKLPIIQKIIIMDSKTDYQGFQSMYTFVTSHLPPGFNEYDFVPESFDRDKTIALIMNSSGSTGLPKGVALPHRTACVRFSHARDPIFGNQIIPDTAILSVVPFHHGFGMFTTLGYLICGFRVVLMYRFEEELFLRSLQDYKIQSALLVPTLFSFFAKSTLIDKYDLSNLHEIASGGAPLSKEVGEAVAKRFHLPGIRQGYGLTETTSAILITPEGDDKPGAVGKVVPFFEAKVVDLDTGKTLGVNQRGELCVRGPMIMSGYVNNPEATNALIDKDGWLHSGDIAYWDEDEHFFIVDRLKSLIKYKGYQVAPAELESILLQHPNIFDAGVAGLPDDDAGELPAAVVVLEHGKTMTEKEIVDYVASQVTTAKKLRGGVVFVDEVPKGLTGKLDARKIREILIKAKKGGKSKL
Assay: firefly luciferase enzyme inhibitors, dose response, biochemical, luminescence (AID 1891)
Active and inactive are the calls of the source.
measurement_label: EC50

Q: Sample `CCN(CC)C(=O)CSc1ncnc2c(-c3ccc(OC)cc3)nsc12` — what was its EC50?
Result: > 112 µM (not active)

Q: Please give the result for `CC(C)c1nnc(NC(=O)CCC(=O)N2CCN(c3ccc(F)cc3)CC2)s1` too.
Result: > 112 µM (not active)

Q: Please give the result for `COc1ccc(C(=O)Nc2sc(C)c(C)c2CN2CCOCC2)cc1` too.
Result: > 112 µM (not active)

Q: Please give the result for `CCOC(=O)c1c(C)c(-c2ccccc2)n(CC(=O)N2CCCC2)c1C` too.
Result: > 112 µM (not active)

Q: Please give the result for `O=C(/C=C/Nc1ccc(Br)cc1F)c1ccco1` too.
Result: 0.482 µM (active)

Q: Please give the result for `CCCCN1C(=O)/C(=N\c2cccc3cnccc23)c2ccccc21` too.
Result: > 112 µM (not active)

Q: Please give the result for `O=[N+]([O-])c1cc(N=Nc2ccc3ccccc3c2)ccc1O` too.
Result: 0.173 µM (active)

Q: Please give the result for `COc1cccc(-c2nn(-c3ccccc3)cc2C(=O)O)c1` too.
Result: > 112 µM (not active)

Q: Please give the result for CCOc1ccc(-c2cc(C(=O)NCC3CCCO3)c3ccccc3n2)cc1 (stereo not drawn) too.
Result: 47.2 µM (active)
